Data credit: ChEMBL document CHEMBL6103619

- TARGET_SYSTEM: Protein cereblon/Cyclic GMP-AMP synthase (Homo sapiens, UniProt Q96SW2+Q8N884)
- Sequence (Q8N884 whole entry, looked up): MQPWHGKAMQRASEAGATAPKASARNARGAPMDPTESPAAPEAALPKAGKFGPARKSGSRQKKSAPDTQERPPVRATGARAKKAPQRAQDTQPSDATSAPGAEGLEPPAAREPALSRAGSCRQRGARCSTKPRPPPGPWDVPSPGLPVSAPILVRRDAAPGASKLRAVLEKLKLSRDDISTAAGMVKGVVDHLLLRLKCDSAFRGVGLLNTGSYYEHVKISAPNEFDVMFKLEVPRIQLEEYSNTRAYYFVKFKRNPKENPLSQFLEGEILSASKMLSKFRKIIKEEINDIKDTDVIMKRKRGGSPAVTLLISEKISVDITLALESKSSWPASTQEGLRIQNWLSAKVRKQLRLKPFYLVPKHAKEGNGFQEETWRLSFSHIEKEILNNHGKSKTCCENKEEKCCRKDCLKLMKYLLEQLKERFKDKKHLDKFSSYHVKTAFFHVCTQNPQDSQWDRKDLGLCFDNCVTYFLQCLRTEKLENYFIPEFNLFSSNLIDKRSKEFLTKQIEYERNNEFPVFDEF
- Sequence (Q96SW2 whole entry, looked up): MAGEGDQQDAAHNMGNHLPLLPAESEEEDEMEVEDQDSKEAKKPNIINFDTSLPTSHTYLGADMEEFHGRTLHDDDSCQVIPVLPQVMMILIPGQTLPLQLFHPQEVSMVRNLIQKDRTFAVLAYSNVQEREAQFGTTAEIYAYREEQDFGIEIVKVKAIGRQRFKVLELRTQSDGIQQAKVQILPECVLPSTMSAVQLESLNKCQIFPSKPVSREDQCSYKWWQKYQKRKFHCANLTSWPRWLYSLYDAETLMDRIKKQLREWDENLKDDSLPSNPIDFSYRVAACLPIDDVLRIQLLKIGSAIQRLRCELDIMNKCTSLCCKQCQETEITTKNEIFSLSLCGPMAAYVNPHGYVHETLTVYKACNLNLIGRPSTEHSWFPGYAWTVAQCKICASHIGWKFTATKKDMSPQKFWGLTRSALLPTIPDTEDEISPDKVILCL
- PROCEDURE_DETAILS: PROTAC activity at CRBN/cGAS in human THP-1 cells assessed as induction of cGAS degradation at 10 uM preincubated with compound for 40 hrs followed by HT-DNA stimulation and measured after 8 hrs by Western blot analysis relative to control
- Format: cell-based
- PARTICULARS: time 48.0 hrs
MEASURE_NAME: Activity (%)
The answer is to be given in %; state only the numeric part.

Sample records with Activity:
MOLECULE: O=C1CCC(N2C(=O)c3cccc(NCCCCCCC(=O)N4CCC(Cn5cc(-c6cc(Cl)c(Cl)c7[nH]c8c(c67)CN(C(=O)CO)CC8)cn5)CC4)c3C2=O)C(=O)N1 (stereo not drawn)
TARGET_SYSTEM: Protein cereblon/Cyclic GMP-AMP synthase (Homo sapiens, UniProt Q96SW2+Q8N884)
UNIT_SYMBOL: %
Activity: 44.7
//
MOLECULE: O=C1CCC(N2C(=O)c3cccc(NCCCCCCCC(=O)N4CCC(Cn5cc(-c6cc(Cl)c(Cl)c7[nH]c8c(c67)CN(C(=O)CO)CC8)cn5)CC4)c3C2=O)C(=O)N1 (stereo not drawn)
TARGET_SYSTEM: Protein cereblon/Cyclic GMP-AMP synthase (Homo sapiens, UniProt Q96SW2+Q8N884)
UNIT_SYMBOL: %
Activity: 35.6

Would you mind telling me what Activity value was observed for O=C1CCC(N2C(=O)c3cccc(NCCOCCOCCOCCOCCOCCOCCOCCOCCC(=O)N4CCC(Cn5cc(-c6cc(Cl)c(Cl)c7[nH]c8c(c67)CN(C(=O)CO)CC8)cn5)CC4)c3C2=O)C(=O)N1 (stereo not drawn) ? 4.6

----------
- PROCEDURE_DETAILS: Half-life in male C57BL/6 mouse at 1 mg/kg, iv measured after 24 hrs by LC-MS/MS analysis
- Assay type: ADME, organism-based
- PARTICULARS: in vivo
MEASURE_NAME: half-life
Value and unit, in that order.

Bench note: what half-life did Cn1ccc(-c2cc(Cl)c(Cl)c3[nH]c4c(c23)CN(C(=O)CNC(=O)CCCC#Cc2cccc3c2CN(C2CCC(=O)NC2=O)C3=O)CC4)n1 (stereo unspecified) show? 3 h

----------
- PROCEDURE_DETAILS: MRT (0 to 24 hrs) in male C57BL/6 mouse at 20 mg/kg, ip measured after 24 hrs by LC-MS/MS analysis
- Type: ADME, organism-based
- PARTICULARS: in vivo
MEASURE_NAME: MRT last at 24 h (h)
Numbers only here, please. The scale is h.

May I ask what MRT last at 24 h has been recorded for Cn1ccc(-c2cc(Cl)c(Cl)c3[nH]c4c(c23)CN(C(=O)CNC(=O)CCCC#Cc2cccc3c2CN(C2CCC(=O)NC2=O)C3=O)CC4)n1 (stereo unspecified) ? 7.9

----------
- PROCEDURE_DETAILS: Inhibition of dsDNA-induced cGAS signaling pathway in mouse RAW-Lucia ISG cells preincubated with compound for 24 hrs followed by HT-DNA addition and measured after 24 hrs by QUANTI-Luc luciferase reagent based assay
- Format: cell-based
MEASURE_NAME: IC50

Here is how some compounds turned out for IC50.
COMPOUND: O=C1CCC(N2C(=O)c3cccc(NCCOCCOCCOCCOCCOCCC(=O)N4CCC(Cn5cc(-c6cc(Cl)c(Cl)c7[nH]c8c(c67)CN(C(=O)CO)CC8)cn5)CC4)c3C2=O)C(=O)N1 (stereo not drawn)
IC50: > 50 µM
//
COMPOUND: Cn1ccc(-c2cc(Cl)c(Cl)c3[nH]c4c(c23)CN(C(=O)CNC(=O)COCCOCCNc2cccc3c2C(=O)N(C2CCC(=O)NC2=O)C3=O)CC4)n1 (stereo not drawn)
IC50: > 50 µM

Please look at the following compound next.
State the recorded IC50 for this entry: Cn1ccc(-c2cc(Cl)c(Cl)c3[nH]c4c(c23)CN(C(=O)CNC(=O)CCCCCCCCCCNc2cccc3c2C(=O)N(C2CCC(=O)NC2=O)C3=O)CC4)n1 (stereo not drawn) > 50 µM

----------
- TARGET_SYSTEM: Protein cereblon/Cyclic GMP-AMP synthase (Homo sapiens, UniProt Q96SW2+Q8N884)
- PROCEDURE_DETAILS: PROTAC activity at CRBN/cGAS in human THP-1 cells assessed as induction of cGAS degradation at 10 uM preincubated with compound for 40 hrs followed by HT-DNA stimulation and measured after 8 hrs by Western blot analysis relative to control
- Format: cell-based
- PARTICULARS: time 48.0 hrs
Below is a list of entries, each paired with its recorded Activity value.
Express the result in % but write the number alone.

See these solved cases before continuing.
MOLECULE: Cn1ccc(-c2cc(Cl)c(Cl)c3[nH]c4c(c23)CN(C(=O)CNC(=O)CCCCNc2cccc3c2C(=O)N(C2CCC(=O)NC2=O)C3=O)CC4)n1 (centres undefined)
Activity (%): 61.5

MOLECULE: Cn1ccc(-c2cc(Cl)c(Cl)c3[nH]c4c(c23)CN(C(=O)CNC(=O)CCCCCNc2cccc3c2C(=O)N(C2CCC(=O)NC2=O)C3=O)CC4)n1 (centres undefined)
Activity (%): 59.3

MOLECULE: Cn1ccc(-c2cc(Cl)c(Cl)c3[nH]c4c(c23)CN(C(=O)CNC(=O)CCCC#Cc2cccc3c2C(=O)N(C2CCC(=O)NC2=O)C3=O)CC4)n1 (centres undefined)
Activity (%): 56.1

Okay, next one:
Returns the measured Activity for the input molecule. Input: Cn1ccc(-c2cc(Cl)c(Cl)c3[nH]c4c(c23)CN(C(=O)CNC(=O)CCCCCCNc2cccc3c2C(=O)N(C2CCC(=O)NC2=O)C3=O)CC4)n1 (centres undefined) 55.1
